Record form. Attribute: apparent KD of MS2 coat protein. Fill in for each entry.
# Test system: MS2 coat protein
# assayProtocol: apparent KD of MS2 coat protein; higher = weaker reporter binding
# statedConditions: Eterna round: R101; input ligand: FMN 200 uM
Write down the numeric answer in nM and omit the unit.

Supply reported apparent KD of MS2 coat protein belonging to this sequence: AAAUAAAUCGAAGGAUAUCAGGGUGCACCUCAGUAAAACUGAGGUGCACCCUGAGAAGGUCGAGGAUCACCCGAUCUAAAUAAA [#SharedSequence SLExNG1: 2-2] (puzzle (switch architecture): Small Loop Exclusion NG 1)
114

Supply reported apparent KD of MS2 coat protein belonging to this sequence: GGUACUCAAAGAGUACCAAUACGAACAUGAGGAUCACCCAUGUAGGAUAUGCUACUCAAAGAGUAGCAGAAGGACAUGUGCCUU [salish99_ExNG3_020 #endbits investigation] (puzzle (switch architecture): Exclusion NG 3)
92.3

Supply reported apparent KD of MS2 coat protein belonging to this sequence: UUAUUAUGUGUAGGAUAUGCGUAUUAUUAUUAUGCAGAAGGACAUGAGGAUCACCCAUGUAUAUUAUUAUUAUAUAUUAUAUAU (puzzle (switch architecture): Exclusion NG 1)
19.1

Supply reported apparent KD of MS2 coat protein belonging to this sequence: CCUGCACCUCAAGGAUAUCCAGUCGUUUCGACUGGAGAAGGUGAGGAUCACCCACCUAGCCUGACGUUUGUCAGGCAUGCAGGU [#AddUracilToBrourdLoops 1 - Jieux - Exclusion NG1] (puzzle (switch architecture): Exclusion NG 1)
49.5

====

# Tested on: MS2 coat protein
# assayProtocol: apparent KD of MS2 coat protein; designed switch direction (-1 OFF switch, 1 ON switch): 1; higher = weaker reporter binding
# statedConditions: Eterna round: R95; input ligand: none
measure: apparent KD of MS2 coat protein (µM)
Write down the numeric answer in µM and omit the unit.

Supply reported apparent KD of MS2 coat protein belonging to this sequence: GUAAAACAUGAGGAUCACCCAUGUAAUAAUAUGGGAGGAUAUCAGAUUUAAUUUAAUUUAUGAGAAGGCCUAAAGU [Mat - Same State 1 - Mod of Eli - D63] (puzzle: Same State 1)
0.628

Supply reported apparent KD of MS2 coat protein belonging to this sequence: AACAAUCUAUCUGAGGAUAUCAUGAAAUAAACAUGAGGAUCACCCAUGUGCAGGUAAACUGCAUAUGAGAAGGCAGAUAGAUUGA [salish99_ss2_r3_040] (puzzle: Same State 2)
0.571

Supply reported apparent KD of MS2 coat protein belonging to this sequence: GUUAUACAUGAGGAUCACCCAUGUCAAUGUAGUCGAGGAUAUGGGCAGCUGUGAGGCGUACUAGAAGGCGAAGAGG [JL-ss1-3.10 ViennaUCT mod] (puzzle: Same State 1)
0.17

Supply reported apparent KD of MS2 coat protein belonging to this sequence: GGGCAGAGGGACAAGGAUAUGUCAGGAGAGACAUGAGGAUCACCCAUGUGGAGGUUGGAGCAGAGACAGAAGGUGUACGGAGCGA [JR_SS2_Sub011] (puzzle: Same State 2)
0.107

Supply reported apparent KD of MS2 coat protein belonging to this sequence: UGGCAACAUGAGGAUCACCCAUGUCAAACUAAUCGAGGAUAUGGGAACGAACAAGAGAAACUAGAAGGCGAACUUG [Altered State 1-11 - Jieux - Same State 1] (puzzle: Same State 1)
0.118

====

Record form. Attribute: apparent KD of MS2 coat protein. Fill in for each entry.
# Test system: MS2 coat protein
# assayProtocol: apparent KD of MS2 coat protein; designed switch direction (-1 OFF switch, 1 ON switch): -1; higher = weaker reporter binding
# statedConditions: input ligand: microRNA oligo, concentration not stated
Write down the numeric answer in nM and omit the unit.

Supply reported apparent KD of MS2 coat protein belonging to this sequence: AAUGUUUGAUACCUUUAAUACAUGAGGAUCACCCAUGUUAUCGAGGAUAUGUAGAUGAAAUGAGAACAGAAGGCGAAGUAAGAG [JR_ExcNG3_Sub098] (Eterna round: R96, puzzle: Exclusion NG 3)
9.73

Supply reported apparent KD of MS2 coat protein belonging to this sequence: CUUGAGCAGGUAGGAUAUACGAAGUGUCGGCGAGUAGAAGGACCUGCGAUCCACUUGAGGAUCACCCAAGUUCGCAGGAGAACA [Mutated MS2 EX1.1] (Eterna round: R96, puzzle: Exclusion NG 1)
32.4

Supply reported apparent KD of MS2 coat protein belonging to this sequence: UUAUUAUAUGUAGGAUAUGCAUAUUGUUGUUAUGCAGAAGGACAUGAGGAUCACCCAUGUAUAUUGUUGUUGUAUAUUAUAUAU [Title] (Eterna round: R96, puzzle: Exclusion NG 1)
22.6

Supply reported apparent KD of MS2 coat protein belonging to this sequence: UAUAUAUAGUAAGGAUAUGUAAUUAUUUUAUGAACAGAAGGUACUGACAUGAGGAUCACCCAUGUUUUAGUGUGGGCAUGUAGA [JMF's solution 48] (Eterna round: R96, puzzle: Exclusion NG 1)
61.3

Supply reported apparent KD of MS2 coat protein belonging to this sequence: UGUUGUUACGCAGGAUAUUGUCAACAGGCAGUAGGAUAUCCGAAAGGAGAAGGACCGCCAACAGGCGAGAAGGGCGGGUUAACA [pwkr exNG2 2xF7 2xFMN.7] (Eterna round: R96, puzzle: Exclusion NG 2)
167

Supply reported apparent KD of MS2 coat protein belonging to this sequence: CCCGUCGAUGUAGGAUAUGCCCGGGUCUCCCGGGCAGAAGGACAUGAGGAUCACCCAUGUUCAUGAGGAUCACCCGUGAAUGGG [Double but mutated MS2] (Eterna round: R96, puzzle: Exclusion NG 1)
13

Supply reported apparent KD of MS2 coat protein belonging to this sequence: GUCGUGCGGCUGUGCUGUACGAGUACAUGAGGAUCACCCAUGUAGGAUAUGGUUCGUUUUGCGUGCUAGAAGGGCGUGCGUUUU [Excl-NG3-LRO17] (Eterna round: R96, puzzle: Exclusion NG 3)
17

Supply reported apparent KD of MS2 coat protein belonging to this sequence: GCUCGCGGGCAAGGAUAUCCUACGCUGUUCUGGCUCGUGUCUGUUACAUGAGGAUCACCCAUGUGGGAGAAGGUGCACCAGGGC [Design 47] (Eterna round: R96, puzzle: Exclusion NG 2)
17.4

Supply reported apparent KD of MS2 coat protein belonging to this sequence: GUAAUUAAUGUAGGAUAUGCAAGGCGAACCUAAGCAGAAGGACAUGAGGAUCACCCAUGUAAUGCGGUCUGCGUACAGAUCGCU [salish99_ExNG1_r4_007] (Eterna round: R96, puzzle: Exclusion NG 1)
13.2

====

# Test system: MS2 coat protein
# assayProtocol: apparent KD of MS2 coat protein; designed switch direction (-1 OFF switch, 1 ON switch): -1; higher = weaker reporter binding
# statedConditions: Eterna round: R95; input ligand: FMN 200 uM
Record form. Attribute: apparent KD of MS2 coat protein. Fill in for each entry.
Write down the numeric answer in nM and omit the unit.

Supply reported apparent KD of MS2 coat protein belonging to this sequence: AUAACAAGCUUUUUGCUCGUCGUAUAUGACGCUCGAGUCACAUGAGGAUCACCCAUGUCUUCCUGUUUGAUUGUUGA [JR_SV3TOV2_Sub056] (puzzle: Sensor v3, turn-off variant 2)
148

Supply reported apparent KD of MS2 coat protein belonging to this sequence: GUUAAGGUAGGAUAUACGAUAAUAUAGGGUAGAAUAUUAACACAUGAGGAUCACCCAUGUAGAAGGACCAAUUG [Mat - Exclusion 2 - Mod of my Tesla design - D51] (puzzle: Exclusion 2)
38.7

Supply reported apparent KD of MS2 coat protein belonging to this sequence: CGAUGUCUUCGGACAUCGAACAUGAGGAUCACCCAUGUAAUGAGCAGAUCCUCAUGCAAGCUUUUUGCUCGUCUUAU [Sensor v3 - turn-off variant 1 - 45] (puzzle: Sensor v3, turn-off variant 1)
14

Supply reported apparent KD of MS2 coat protein belonging to this sequence: CCGAGCAGACGGAGAUCCAACAUGAGGAUCACCCAUGUCUCAAAAGCUUUUUGCUCGUCUUAUCCUCCUCUGUUCUC [Legedi] (puzzle: Sensor v3, turn-off variant 1)
27.6

Supply reported apparent KD of MS2 coat protein belonging to this sequence: UUACUAUGCCGCCUAAUAGCUUUUUGCUCGUCUUAUAUUACAUGAGGAUCACCCAUGUAGAUCAUGUGGCGUGACCU [JL ViennaUCT Maridi mod 3] (puzzle: Sensor v3, turn-off variant 2)
216

Supply reported apparent KD of MS2 coat protein belonging to this sequence: GAGUGACAUGAGGAUCACCCAUGUGAGGAUAUCGGACGGACCAAAUUAACAAUAAAUGCGAGAAGGCGCAUCGG [Exclusion 1 V16] (puzzle: Exclusion 1)
46.7

Supply reported apparent KD of MS2 coat protein belonging to this sequence: UUUUAACAUGAGGAUCACCCAUGUGAGGAUAUCGUAUUUUAUAUUAAUAUUAAUAAAACGAGAAGGCACAUUUU [JMF 9] (puzzle: Exclusion 1)
28.4

Supply reported apparent KD of MS2 coat protein belonging to this sequence: UAGGUACAUGAGGAUCACCCAUGUGAGGAUAUAGAGGAAGAUUGCGAGAGGGAGAGGACUAGAAGGCACAGUGG [JR_Exclu1_Sub035] (puzzle: Exclusion 1)
37

Supply reported apparent KD of MS2 coat protein belonging to this sequence: CUGGUCCGAGGAUAUAUUAUGUGAUACAUGAGGAUCACCCAUGUUAUAUGAUGGAUAUAAAUAGAAGGCGGACUAG [Mat - Exclusion 5 - JL mod - D66] (puzzle: Exclusion 5)
48.6

Supply reported apparent KD of MS2 coat protein belonging to this sequence: GAUGAGCAUGUCAGGAUAUCCACUCUAAUAAAACAGGAGAAGGGACAUGAGGAUCACCCAUGUUCUAGACAUGA [Latealedi] (puzzle: Brourd's mod of Exclusion 4)
14.5
